Biological target: T1, Anti-PSMA Fab (SEQ ID NOs: 19, 20)
T1 construct: Biotinylated and captured on neutravidin coated plates in the phage ELISA; also called 006 PSMA Fab
Assay: phage binding ELISA; Fab-coated wells pre-incubated with PSMA antigen (competitor: PSMA), then clonal phage, anti-M13 HRP detection
property: Anti-PSMA Fab signal in the presence of PSMA

INSERT INTO measurements (binder, datavalue) VALUES
  ('FCNWVDGDVWVVCK (tested as crude phage supernatant) [Phage-1734 (clonal phage displaying the peptide of SEQ ID NO: 2018)]', 0.0607),
  ('FGHCAGSPVFCAYW (tested as crude phage supernatant) [Phage-1730 (clonal phage displaying the peptide of SEQ ID NO: 2014)]', 0.054),
  ('EGCLTLVDGRAWCW (tested as crude phage supernatant) [Phage-1735 (clonal phage displaying the peptide of SEQ ID NO: 2019)]', 0.0521),
  ('FCQWIEATNAWLCY (tested as crude phage supernatant) [Phage-1732 (clonal phage displaying the peptide of SEQ ID NO: 2016)]', 0.119),
  ('SIPCIPRDWLCPIK (tested as crude phage supernatant) [Phage-1725 (clonal phage displaying the peptide of SEQ ID NO: 2009)]', 0.239),
  ('PDCVYHSFWGYSCR (tested as crude phage supernatant) [Phage-1740 (clonal phage displaying the peptide of SEQ ID NO: 2024)]', 0.0641),
  ('NAHCWLWVPAHCRV (tested as crude phage supernatant) [Phage-1729 (clonal phage displaying the peptide of SEQ ID NO: 2013)]', 0.0672),
  ('SCGWLRGEEFGWWC (tested as crude phage supernatant) [Phage-1739 (clonal phage displaying the peptide of SEQ ID NO: 2023)]', 0.0625),
  ('HLFCWEGSDRCAWV (tested as crude phage supernatant) [Phage-1727 (clonal phage displaying the peptide of SEQ ID NO: 2011)]', 0.0753),
  ('FCGWMDGDVFWFCG (tested as crude phage supernatant) [Phage-1733 (clonal phage displaying the peptide of SEQ ID NO: 2017)]', 0.145),
  ('MEYCSFHRFTCVLW (tested as crude phage supernatant) [Phage-1736 (clonal phage displaying the peptide of SEQ ID NO: 2020)]', 0.12),
  ('ACHSLVLKHHLQKC (tested as crude phage supernatant) [Phage-1738 (clonal phage displaying the peptide of SEQ ID NO: 2022)]', 0.0624),
  ('IRCVGEGHDLVCIF (tested as crude phage supernatant) [Phage-1724 (clonal phage displaying the peptide of SEQ ID NO: 2008)]', 0.081),
  ('HCKFHDYHSWYMCY (tested as crude phage supernatant) [Phage-1737 (clonal phage displaying the peptide of SEQ ID NO: 2021)]', 0.117),
  ('ICQWIGATNAWVCY (tested as crude phage supernatant) [Phage-1726 (clonal phage displaying the peptide of SEQ ID NO: 2010)]', 0.326),
  ('PLCGTEEVWWECRL (tested as crude phage supernatant) [Phage-1728 (clonal phage displaying the peptide of SEQ ID NO: 2012)]', 0.0694);
